Assay: AUC in rat at 1.5 mg/kg, ip after 24 hrs
Format: ADME, organism-based
Set-up: time < 24 hr, dose 1.5 mg/kg, route intraperitoneal
Settings: plasma
observation.type: AUC at 24 h (ng·h/mL)
Reply with just the number (in ng·h/mL).

For reference, reported AUC at 24 h for `Cc1cc(C)cc(-c2[nH]c3c(c2[C@H](C)CNCCc2ccc(-c4nnn[nH]4)cc2)CN(C(=O)Cc2c(F)cccc2C(F)(F)F)CC3)c1` stands at 1290

* * *

Target: Gonadotropin-releasing hormone receptor (Rattus norvegicus, UniProt P30969)
Sequence (P30969 whole entry): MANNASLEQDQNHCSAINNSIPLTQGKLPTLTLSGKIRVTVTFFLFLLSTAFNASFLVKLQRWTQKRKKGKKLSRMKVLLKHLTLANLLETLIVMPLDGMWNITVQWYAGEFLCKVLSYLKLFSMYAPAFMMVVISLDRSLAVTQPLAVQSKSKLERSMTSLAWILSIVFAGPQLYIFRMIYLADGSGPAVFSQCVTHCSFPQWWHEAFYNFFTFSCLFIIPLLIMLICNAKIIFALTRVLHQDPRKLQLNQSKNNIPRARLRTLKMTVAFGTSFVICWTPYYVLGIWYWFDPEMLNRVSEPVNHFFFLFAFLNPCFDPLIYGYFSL
Assay: Inhibition of GnRHR in rat pituitary cells assessed as inhibition of GnRH-stimulated LH release
Type: functional, cell-based, Pituitary gland cell
Overview of reported IC50 across a group of compounds:
Reply with just the number (in nM).

Record excerpt, results attached:
• Cc1cc(C)cc(-c2[nH]c3c(c2[C@H](C)CNCCc2ccncc2)CN(C(=O)Cc2ccccc2)CC3)c1 = 110
• Cc1cc(C)cc(-c2[nH]c3c(c2[C@H](C)CNCCc2ccncc2)CN(C(=O)C24CC5CC(CC(C5)C2)C4)CC3)c1 = 63
• Cc1cc(C)cc(-c2[nH]c3c(c2[C@H](C)CNCCc2cc4[nH]nnc4cc2F)CN(C(=O)Cc2c(F)cccc2C(F)(F)F)CC3)c1 = 28

Moving on to another compound below.
For reference, reported IC50 for `Cc1cc(C)cc(-c2[nH]c3c(c2[C@H](C)CNCCc2ccncc2)CN(C(=O)Cc2ccccc2C(F)(F)F)CC3)c1` stands at 47
